# measurement_description: folding enthalpy; higher = less favourable; fluorescence melt of hairpins on a sequencing array, two-state fit
# applied_conditions: sodium 0.088 M
For each entry below, report its folding enthalpy value.
Answers are plain numbers, in kcal/mol.

Here are 5 sequences together with their reported answers.
seq_text: GCCGACGAAAGTCTTGGC ((((((....)))..)))
folding enthalpy [kcal/mol]: -23.2
//
seq_text: GTCGACGAAAGTCGGAC ((((((....))).)))
folding enthalpy [kcal/mol]: -14.3
//
seq_text: GATCAGAAGGCTGATC ((((((....))))))
folding enthalpy [kcal/mol]: -29.4
//
seq_text: GTTCAAGGAAACTTGGAC ((.((((....)))).))
folding enthalpy [kcal/mol]: -20.7
//
seq_text: GATCACAACAGTGATC ((((((....))))))
folding enthalpy [kcal/mol]: -41.7

Give measured folding enthalpy for every item shown.
1. GATCCCAATAGGGATC ((((((....))))))
2. GGTACAGGAAACTGTGCC ((.((((....)))).))
3. GGCGGTGGAAACACCACC ((.((((....)))).))
4. CGCGCGGAAACGCTGCG ((((((....))).)))
5. GCAATGCGAAAGCAGTGC (((.(((....))).)))
6. GTCCTACCGAAAGGTGAC (((..(((....))))))
7. GTATTCACGAAAGTGTAC (((..(((....))))))

## Result
-36.5
-31.8
-27.5
-26.9
-33.6
-11.1
-9.14

Give measured folding enthalpy for every item shown.
1. GCATTCGGAAACGAATAC (.(((((....))))).)
2. GCACTAGGAAACTAGTAC (.(((((....))))).)
3. GCGTAGAACGC ((((...))))

## Result
1. -19.8
2. -20.8
3. -23.7

Give measured folding enthalpy for every item shown.
1. GATCCCAATTGGGATC ((((((....))))))
2. GGCTCGCCGAAAGGCGCC (((..(((....))))))
3. GATTGCGGAAACGTGATC (((..((....))..)))
4. GCCTGAGCGAAAGCTGGC (((..(((....))))))
5. GACAGAGGAAACTCCGTC (((.(((....))).)))
6. GATCCACGTCTGGATC ((((((....))))))
7. GCTTCTCCGAAAGGAAGC (((..(((....))))))
8. ACACAGAAATGTGT (((((....)))))

## Result
[-38.2, -6.98, -30.6, -25.7, -18.3, -38.3, -24.2, -14.7]

Give measured folding enthalpy for every item shown.
1. GCAACGCGAAAGCCTCGC ((.(.((....)).).))
2. GCGGGTCTCCGC ((((....))))

## Result
[-7.26, -22.9]

## Task Please look at this sequence and report its folding enthalpy: GCGCTACGAAAGTAACGC (((.(((....))).)))
## Result -41.1

###

# measurement_description: folding enthalpy; higher = less favourable; fluorescence melt of hairpins on a sequencing array, two-state fit
# applied_conditions: sodium 0.088 M
quantity_measured: folding enthalpy (kcal/mol)
Give bare numbers, in kcal/mol.

Here are 10 sequences together with their reported answers.
seq_text: GGCATCGAAAGATCGGCC ((((((....)))..)))
quantity_measured: folding enthalpy
unit_string: kcal/mol
meas_value: -23.7
//
seq_text: CGTACGGAAACGTTGACG ((((((....)))..)))
quantity_measured: folding enthalpy
unit_string: kcal/mol
meas_value: -16.5
//
seq_text: GTTGAAGGAAACTTCAAC (((((((....)))))))
quantity_measured: folding enthalpy
unit_string: kcal/mol
meas_value: -51.5
//
seq_text: GATCAAGGCTTGATC ((((((...))))))
quantity_measured: folding enthalpy
unit_string: kcal/mol
meas_value: -49.3
//
seq_text: GCCGATGGAAACGTTGGC (((.(.(....).).)))
quantity_measured: folding enthalpy
unit_string: kcal/mol
meas_value: -25.5
//
seq_text: CGAGGGCGGAAACGCTCG (((..(((....))))))
quantity_measured: folding enthalpy
unit_string: kcal/mol
meas_value: -16.9
//
seq_text: GATCTTTATGAAGATC ((((((....))))))
quantity_measured: folding enthalpy
unit_string: kcal/mol
meas_value: -36.5
//
seq_text: GATCACAGAGTGATC ((((((...))))))
quantity_measured: folding enthalpy
unit_string: kcal/mol
meas_value: -35
//
seq_text: GGAAGGAAACTTCC (((((....)))))
quantity_measured: folding enthalpy
unit_string: kcal/mol
meas_value: -24.1
//
seq_text: GATCTCTTTGAGATC ((((((...))))))
quantity_measured: folding enthalpy
unit_string: kcal/mol
meas_value: -32.1

Give measured folding enthalpy for every item shown.
1. GTGCTCGAAAGAGCGCAC ((((((....)))..)))
2. GCATCTGAAAAGATGC ((((((....))))))

## Result
1: -11.6; 2: -32.6
